Data origin, for the record: ChEMBL document CHEMBL4765318

biological target: UniProtKB Q06187
Endpoint name: IC50 (nM)
# output: bare number, implied unit nM

## Task Send back UniProtKB Q06187 IC50 of C=CC(=O)N1CCc2ccc(Nc3ncnc(Nc4ccc(C(=O)N5CCCCC5)cc4)n3)cc21 only.
## Result 54.3

---

target: UniProtKB Q06187; settings: dose 100.0 nM
Description: Inhibition of BTK (unknown origin) at 100 nM by ADP-Glo assay relative to control
Assign classes using reported inhibition values and the ranges bin 0 (below 30%), bin 1 (30% to below 60%), bin 2 (60% or more), please.

# example entries with known answers
INSERT INTO measurements (smiles, system_tested, qualitative_label) VALUES
  ('C=CC(=O)Nc1cccc(Nc2ncnc(Nc3ccc(C(=O)N4CCOCC4)cc3)n2)c1', 'UniProtKB Q06187', 'bin 2'),
  ('C=CC(=O)Nc1cccc(Nc2ncnc(Nc3ccc(C(=O)Nc4ccccn4)cc3)n2)c1', 'UniProtKB Q06187', 'bin 1');

## Task Tag the class for C=CC(=O)Nc1cccc(Nc2ncnc(Nc3ccc(C(=O)Nc4ccc(C)cn4)cc3)n2)c1
## Result bin 1

## Task Tag the class for C=CC(=O)Nc1cccc(Nc2ncnc(Nc3ccc(C(=O)N4CCCCC4)cc3)n2)c1
## Result bin 2

## Task Tag the class for C=CC(=O)Nc1cccc(Nc2ncnc(Nc3ccc(-c4ccc(C)nc4)cc3)n2)c1
## Result bin 1

## Task Tag the class for C=CC(=O)Nc1cccc(Nc2nc(Cl)nc(Nc3ccc(Oc4ccccc4)cc3)n2)c1
## Result bin 0

## Task Tag the class for C=CC(=O)Nc1cccc(Nc2nc(N)nc(Nc3ccc(OCCOC)cc3)n2)c1
## Result bin 0

## Task Tag the class for CC#CC(=O)Nc1cccc(Nc2ncnc(Nc3ccc(C(=O)N4CCCCC4)cc3)n2)c1
## Result bin 0

## Task Tag the class for C=CC(=O)Nc1cccc(Nc2ncnc(Nc3ccc(-c4ccc(F)nc4)cc3)n2)c1
## Result bin 1

## Task Tag the class for C=CC(=O)Nc1cccc(Nc2ncnc(Nc3ccc(OCCOC)cc3)n2)c1
## Result bin 1

## Task Tag the class for C=CC(=O)N1CCc2ccc(Nc3ncnc(Nc4ccc(C(=O)N5CCCCC5)cc4)n3)cc21
## Result bin 2

## Task Tag the class for C=CC(=O)Nc1cccc(Nc2ncnc(Nc3ccc(-c4ccc(OC)nc4)cc3)n2)c1
## Result bin 1

---

target: Epidermal growth factor receptor (Homo sapiens)
Sequence (P00533 whole entry): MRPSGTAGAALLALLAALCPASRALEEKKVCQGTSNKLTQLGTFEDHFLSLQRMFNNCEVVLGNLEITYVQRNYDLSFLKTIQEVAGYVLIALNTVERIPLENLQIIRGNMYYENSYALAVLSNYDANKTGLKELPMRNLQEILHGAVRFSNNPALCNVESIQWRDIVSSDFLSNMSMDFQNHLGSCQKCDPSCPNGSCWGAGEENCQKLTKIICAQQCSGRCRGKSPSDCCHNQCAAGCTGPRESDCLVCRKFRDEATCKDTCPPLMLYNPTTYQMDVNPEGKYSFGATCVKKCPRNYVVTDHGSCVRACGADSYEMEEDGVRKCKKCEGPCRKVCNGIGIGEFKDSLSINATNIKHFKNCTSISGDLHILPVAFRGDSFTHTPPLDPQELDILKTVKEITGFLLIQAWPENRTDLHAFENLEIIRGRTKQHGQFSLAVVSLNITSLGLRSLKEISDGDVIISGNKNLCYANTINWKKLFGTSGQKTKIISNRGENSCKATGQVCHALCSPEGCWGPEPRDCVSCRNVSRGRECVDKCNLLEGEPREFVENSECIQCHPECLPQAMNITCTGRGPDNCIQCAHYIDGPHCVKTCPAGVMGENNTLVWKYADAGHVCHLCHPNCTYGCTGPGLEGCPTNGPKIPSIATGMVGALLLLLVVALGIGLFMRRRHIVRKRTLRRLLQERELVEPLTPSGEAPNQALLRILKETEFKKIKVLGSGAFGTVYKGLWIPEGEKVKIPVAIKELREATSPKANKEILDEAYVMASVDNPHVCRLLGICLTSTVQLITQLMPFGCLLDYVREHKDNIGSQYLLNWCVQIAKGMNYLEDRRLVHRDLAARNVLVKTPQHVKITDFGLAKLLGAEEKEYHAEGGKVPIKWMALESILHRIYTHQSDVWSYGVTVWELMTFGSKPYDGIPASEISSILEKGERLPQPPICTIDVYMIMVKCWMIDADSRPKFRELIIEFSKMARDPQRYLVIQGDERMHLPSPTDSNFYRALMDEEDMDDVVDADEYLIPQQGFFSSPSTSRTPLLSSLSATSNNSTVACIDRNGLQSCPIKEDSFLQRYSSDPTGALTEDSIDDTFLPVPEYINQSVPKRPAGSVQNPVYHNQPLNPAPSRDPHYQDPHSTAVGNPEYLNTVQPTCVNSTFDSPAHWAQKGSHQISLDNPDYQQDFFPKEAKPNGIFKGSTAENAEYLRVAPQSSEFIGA
Endpoint name: IC50 (µM)
# output: bare number, implied unit µM

## Task Send back Epidermal growth factor receptor (Homo sapiens) IC50 of C=CC(=O)Nc1cccc(Nc2ncnc(Nc3ccc(C(=O)N4CCCCC4)cc3)n2)c1 only.
## Result 0.031

---

molecular target: Tyrosine-protein kinase BTK (Homo sapiens); details: dose 100.0 nM
Sequence (Q06187 whole entry): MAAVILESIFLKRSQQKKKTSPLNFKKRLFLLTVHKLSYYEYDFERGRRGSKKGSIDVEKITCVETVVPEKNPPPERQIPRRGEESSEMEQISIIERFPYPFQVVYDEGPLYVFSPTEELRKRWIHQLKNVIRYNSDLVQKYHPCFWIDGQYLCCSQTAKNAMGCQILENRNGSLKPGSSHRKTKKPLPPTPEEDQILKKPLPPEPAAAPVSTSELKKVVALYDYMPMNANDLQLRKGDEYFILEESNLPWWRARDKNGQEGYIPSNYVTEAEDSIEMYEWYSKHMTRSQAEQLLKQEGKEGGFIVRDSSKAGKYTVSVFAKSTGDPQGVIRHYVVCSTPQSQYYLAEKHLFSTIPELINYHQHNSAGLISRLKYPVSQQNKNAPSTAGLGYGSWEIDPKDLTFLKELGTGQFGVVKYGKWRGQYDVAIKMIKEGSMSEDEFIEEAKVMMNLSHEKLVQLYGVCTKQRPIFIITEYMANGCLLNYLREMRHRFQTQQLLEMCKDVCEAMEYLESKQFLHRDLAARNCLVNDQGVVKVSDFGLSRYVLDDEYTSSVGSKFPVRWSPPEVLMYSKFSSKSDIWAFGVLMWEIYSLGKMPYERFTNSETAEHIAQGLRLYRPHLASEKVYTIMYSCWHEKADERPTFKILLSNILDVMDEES
# label = 1 (yes) if inhibition >= 40% else 0 (no)

# example entries with known answers
INSERT INTO results (smiles, system_tested, qualitative_label) VALUES
  ('C/C=C/C(=O)Nc1cccc(Nc2ncnc(Nc3ccc(C(=O)N4CCCCC4)cc3)n2)c1', 'Tyrosine-protein kinase BTK (Homo sapiens)', '0 (no)'),
  ('C=CC(=O)Nc1cccc(Nc2ncnc(Nc3ccc(-c4ccc(Cl)nc4)cc3)n2)c1', 'Tyrosine-protein kinase BTK (Homo sapiens)', '0 (no)'),
  ('C=CC(=O)Nc1cccc(Nc2nc(Cl)nc(Nc3ccc(OCCOC)cc3)n2)c1', 'Tyrosine-protein kinase BTK (Homo sapiens)', '0 (no)'),
  ('C=CC(=O)Nc1cccc(Nc2ncnc(Nc3ccc(Oc4ccc(OC)cc4)cc3)n2)c1', 'Tyrosine-protein kinase BTK (Homo sapiens)', '0 (no)'),
  ('C=CC(=O)Nc1cccc(Nc2ncnc(Nc3ccc(-c4cccnc4)cc3)n2)c1', 'Tyrosine-protein kinase BTK (Homo sapiens)', '1 (yes)');

Shift focus to the following entry.
## Task Given C=CC(=O)Nc1cccc(Nc2nc(N)nc(Nc3ccc(Oc4ccccc4)cc3)n2)c1 , state whether its inhibition is at least 40%.
## Result 0 (no)
